Answer each item with its documented IL1β Production.
- Tested on: LPS-stimulated human peripheral blood mononuclear cells (IL1-β)
- Format: cell-based
- Experimental Parameters: Table 12; cells stimulated with 10 ng/ml LPS; LPS alone 1313 (HH2 derivatives), 1927 (1018 derivatives), 2455 (1002 and hybrid peptides) pg/ml
Ends that are not written are not given here.
Give bare numbers, in pg/mL.

Some solved entries appear below for comparison.
1) 1018-W12: single substituted 1018 peptide (VRLIVAVRIWRW-NH2) [Peptide 1018-W12]: 441
2) 1002-W1: single substituted 1002 peptide (WQRWLIVWRIRK-NH2) [Peptide 1002-W1]: 127
3) 1018-K12: single substituted 1018 peptide (VRLIVAVRIWRK-NH2) [Peptide 1018-K12]: 127
4) 1018-Q6: single substituted 1018 peptide (VRLIVQVRIWRR-NH2) [Peptide 1018-Q6]: 186
5) 1018-G12: single substituted 1018 peptide (VRLIVAVRIWRG-NH2) [Peptide 1018-G12]: 490

// each listed substance needs a value for IL1β Production
1. 1002-R12: single substituted 1002 peptide (VQRWLIVWRIRR-NH2) [Peptide 1002-R12]
2. HH2-G3: single substituted HH2 peptide (VQGRIRVAVIRA-NH2)

Resp:
[127, 1687]

====

- System: S. aureus biofilm
- Type: cell-based
- Experimental Parameters: concentration that reduced biofilm growth by 50%
Peptide text beside a SMILES is read from it.
Answer each item with its documented MBIC50 S. aureus.
Give bare numbers, in µg/mL.

// each listed molecule needs a value for MBIC50 S. aureus
1. CC[C@H](C)[C@H](NC(=O)[C@H](CCCNC(=N)N)NC(=O)[C@@H](NC(=O)[C@H](CCCCN)NC(=O)[C@@H](NC(=O)[C@@H](NC(=O)[C@@H](NC(=O)[C@H](CCCNC(=N)N)NC(=O)[C@@H](N)C(C)C)C(C)C)[C@@H](C)CC)C(C)C)C(C)C)C(=O)N[C@@H](CCCNC(=N)N)C(=O)N[C@@H](CCCNC(=N)N)C(=O)N[C@@H](CCCNC(=N)N)C(N)=O [Peptide 2004] (H-VRVIVKVRIRRR-NH2; N-terminus assumed)
2. CC[C@H](C)[C@H](NC(=O)[C@H](CCCNC(=N)N)NC(=O)[C@@H](NC(=O)[C@H](CCCCN)NC(=O)[C@@H](NC(=O)[C@@H](NC(=O)[C@H](CC(C)C)NC(=O)[C@H](CCCNC(=N)N)NC(=O)[C@@H](N)C(C)C)[C@@H](C)CC)C(C)C)C(C)C)C(=O)N[C@@H](Cc1c[nH]c2ccccc12)C(=O)N[C@@H](CCCNC(=N)N)C(=O)N[C@@H](CCCNC(=N)N)C(N)=O [Peptide 2001] (H-VRLIVKVRIWRR-NH2; N-terminus assumed)

Resp:
1: 20; 2: 10

====

- System: methicillin resistant Staphylococcus aureus (MRSA) biofilm
- Experimental Parameters: approximate peptide concentration […] (around 3 μg/ml); compared to untreated samples
- Experimental: Methods of assessment of anti-biofilm activity—Biofilm formation was initially analyzed using a static abiotic solid surface assay as described elsewhere (de la Fuente-Nunez et al., 2012). […] Peptide was added at time zero (prior to adding the diluted, overnight cultures) in varying concentrations, and the decrease in biofilm formation was recorded at 22-46 h for most bacteria. […]
Ends that are not written are not given here.
Classify by % Biofilm inhibition. Ranges: lower segment = under 50%, middle segment = from 50% up to 60%, upper segment = 60% and over

1. HH2-G4: single substituted HH2 peptide (VQLGIRVAVIRA-NH2): lower segment

Kindly review the next substance as well.
Req: Quick check: band for 1002-W7: single substituted 1002 peptide (VQRWLIWWRIRK-NH2) [Peptide 1002-W7]
Resp: upper segment
